# system-tested: TNFα / TNFα receptor (TNFα R1/Fc) (Homo sapiens)
# Construct: purchased R&D Systems
# Sequence (P01375 77-233 limits assumed, species assumed): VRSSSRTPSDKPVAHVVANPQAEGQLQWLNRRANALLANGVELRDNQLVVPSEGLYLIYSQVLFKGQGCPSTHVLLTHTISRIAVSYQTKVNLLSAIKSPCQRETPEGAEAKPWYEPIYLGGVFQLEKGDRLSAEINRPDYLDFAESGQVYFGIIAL
# protocol: Inhibition of binding of TNFα to the TNFα receptor (plate ELISA competition)
# experimental-setup: Table 2; read-out: Activity (IC50, inhibition of TNFα binding to TNFα R1/Fc)
pIC50: −log10 of the molar value. Numbered stars: 1 amine (or outer) side, 2 acyl side, 3 side chain; on linkers, the order of the positions; unused ones are H or OH. Bridge positions count the residues as written; N and C are the ends. Square brackets hold non-standard residues; d marks the D form. Peptide text beside a SMILES is read from it. dPhe(4-CF3) = N[C@H](Cc1ccc(C(F)(F)F)cc1)C(=O)O; Bip = N[C@@H](Cc1ccc(-c2ccccc2)cc1)C(=O)O; Phe(4-NH2) = Nc1ccc(C[C@H](N)C(=O)O)cc1; d(hPhe) = N[C@H](CCc1ccccc1)C(=O)O; d2Thi = N[C@H](Cc1cccs1)C(=O)O; Suc = O=C(CCC(=O)[*:2])[*:1]; Ava = NCCCCC(=O)O
# key: entry, value: pIC50

These solved cases illustrate the format of a correct answer.
INSERT INTO assay_data (compound, result) VALUES
  ('O=C(O)CCCCNC(=O)[C@@H]1Cc2ccc(cc2)NC(=O)CCC(=O)N[C@H](Cc2ccccc2)C(=O)N[C@@H](Cc2ccc(-c3ccccc3)cc2)C(=O)N[C@H](CCc2ccccc2)C(=O)N1 [Compound 461] ([dF][Bip][d(hPhe)][Phe(4-NH2)][Ava]-OH; linker N-4 via Suc)', '< 4.00'),
  ('O=C1CCC(=O)N[C@H](Cc2cccs2)C(=O)N[C@@H](Cc2ccc(-c3ccccc3)cc2)C(=O)N[C@H](Cc2ccc(C(F)(F)F)cc2)C(=O)N[C@H](C(=O)O)Cc2ccc(cc2)N1 [Compound 79] ([d2Thi][Bip][dPhe(4-CF3)][Phe(4-NH2)]-OH; linker N-4 via Suc)', '< 4.00');

Given item CN(C)C(=O)[C@@H]1Cc2ccc(cc2)NC(=O)CCC(=O)N[C@H](CCc2ccccc2)C(=O)N[C@@H](Cc2ccc(-c3ccccc3)cc2)C(=O)N[C@H](Cc2ccccc2)C(=O)N1 [Compound 370] ([d(hPhe)][Bip][dF][Phe(4-NH2)]-NMe2; linker N-4 via Suc) , the value recorded as its pIC50 is < 4.00
